Target: CDK2 (Homo sapiens, UniProt P24941)
Construct: endogenous in cells; host or cells: MDA-MB-231
Experiment: CDK protein degradation activity (Western blotting), CDK2
Assay type: cell-based
Conditions: MDA-MB-231 cells, 1 μM, 16 hours, Western blot
Would you kindly list Enzyme degradation CDK2 (% remaining) @ 1 μM for each of these compounds?

{"columns": ["compound", "result"],
 "data": [
  ["O=C1CC[C@@H](c2ccc(OCC(=O)N3CC(N4CCC5(CC4)CC(N4CCN(c6ccc(Nc7ncnc8c7ncn8[C@H]7C[C@@H](NC(=O)Cc8ccccc8)C7)cc6)CC4)C5)C3)cc2)C(=O)N1 [Compound 273]", "70%"]
]}

Each of the following entries comes with a recorded value; kindly state Enzyme degradation CDK2 (% remaining) @ 1 μM for each.
1. Cc1cccc(C(=O)N[C@H]2C[C@@H](n3cnc4c(Nc5ccc(N6CCN(C(=O)CNc7cccc8c7C(=O)N([C@H]7CCC(=O)NC7=O)C8=O)CC6)cc5)ncnc43)C2)n1 [Compound 87]
2. O=C1CC[C@H](N2C(=O)c3cc(F)c(N4CCC(C(=O)N5CCC(CN6CCN(c7ccc(Nc8ncnc9c8ncn9C8CC(NC(=O)c9cccc(Cl)n9)C8)cc7)CC6)CC5)CC4)cc3C2=O)C(=O)N1 (stereo partly drawn) [Compound 453]

Outgoing:
70%
20%

====

Molecular target: CDK2 (Homo sapiens, UniProt P24941)
Construct: endogenous in cells; host or cells: MDA-MB-231
Assay: CDK protein degradation activity (Western blotting), CDK2
Format: cell-based
Settings: MDA-MB-231 cells, 0.1 μM, 16 hours, Western blot
readout_name: Enzyme degradation CDK2 (% remaining) @ 0.1 μM

Example compounds with recorded Enzyme degradation CDK2 (% remaining) @ 0.1 μM:
{"columns": ["compound", "target_or_system", "result"],
 "data": [
  ["O=C1CC[C@H](n2nnc3ccc(N4CCC5(CC4)CC(N4CCN(c6ccc(Nc7ncnc8c7ncn8[C@H]7C[C@@H](NC(=O)Cc8ccccc8)C7)cc6)CC4)C5)cc3c2=O)C(=O)N1 [Compound 314]", "CDK2 (Homo sapiens, UniProt P24941)", "10/10/10%"],
  ["O=C(COc1ccc2c(c1)C(=O)N(C1CCC(=O)NC1=O)C2=O)NC[C@H]1CC[C@H](CN2CCN(c3ccc(Nc4ncnc5c4ncn5[C@H]4C[C@@H](NC(=O)Cc5ccccc5)C4)cc3)CC2)CC1 (stereo partly drawn) [Compound 221]", "CDK2 (Homo sapiens, UniProt P24941)", "100/100/100%"]
]}

Incoming: If you can, please state the reported Enzyme degradation CDK2 (% remaining) @ 0.1 μM value of O=C1CC[C@H](N2C(=O)c3ccc(N4CCC(CN5CCN(c6ccc(Nc7ncnc8c7ncn8C7CC(NC(=O)c8c(Cl)cccc8Cl)C7)cc6)CC5)CC4)cc3C2=O)C(=O)N1 (stereo partly drawn) [Compound 166] .
Outgoing: 10%

====

Biological target: CDK9 (Homo sapiens, UniProt P50750)
Construct: endogenous in cells; host or cells: MDA-MB-231
Sequence (P50750 whole entry): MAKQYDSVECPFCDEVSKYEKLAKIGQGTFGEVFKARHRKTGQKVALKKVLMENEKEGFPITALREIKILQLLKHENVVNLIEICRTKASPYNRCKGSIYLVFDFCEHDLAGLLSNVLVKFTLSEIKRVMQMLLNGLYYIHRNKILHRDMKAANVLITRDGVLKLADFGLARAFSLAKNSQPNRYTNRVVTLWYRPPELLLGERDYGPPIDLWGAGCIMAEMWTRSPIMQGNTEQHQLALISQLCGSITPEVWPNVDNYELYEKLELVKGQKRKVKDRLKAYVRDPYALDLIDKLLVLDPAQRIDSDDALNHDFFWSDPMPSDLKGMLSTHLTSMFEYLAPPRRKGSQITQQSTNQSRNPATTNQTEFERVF
Assay: CDK protein degradation activity (Western blotting), CDK9
Type: cell-based
Details: MDA-MB-231 cells, 0.1 μM, 16 hours, Western blot
readout_name: Enzyme degradation CDK9 (% remaining) @ 0.1 μM

Answered examples (3):
{"columns": ["compound", "result"],
 "data": [
  ["O=C1CC[C@@H](c2cccc(OCC(=O)N3CCC(CC(=O)N4CCN(c5ccc(Nc6ncnc7c6ncn7[C@H]6C[C@@H](NC(=O)Cc7ccccc7)C6)cc5)CC4)CC3)c2)C(=O)N1", "60%"],
  ["O=C1CC[C@H](N2C(=O)c3cc(F)c(N4CCC(CN5CCN(c6ccc(Nc7ncnc8c7ncn8C7CC(NC(=O)c8cccc(C(F)(F)F)n8)C7)cc6)CC5)CC4)cc3C2=O)C(=O)N1 (stereo partly shown)", "10/10/10%"],
  ["O=C1CC[C@H](N2C(=O)c3ccc(CCCCN4CCC(N5CCN(c6ccc(Nc7ncnc8c7ncn8C7CC(NC(=O)Cc8ccccc8)C7)cc6)CC5)CC4)cc3C2=O)C(=O)N1 (stereo partly shown)", "20%"]
]}

// for each compound in input: emit Enzyme degradation CDK9 (% remaining) @ 0.1 μM
1. O=C1CC[C@H](n2nnc3ccc(N4CCC(CN5CCN(c6ccc(Nc7ncnc8c7ncn8[C@H]7C[C@@H](NC(=O)c8cccc(C(F)(F)F)n8)C7)cc6)CC5)CC4)cc3c2=O)C(=O)N1
2. O=C1CC[C@H](N2C(=O)c3ccc(OCC(=O)N4CCC(CN5CCC(CNc6ncnc7c6ncn7C6CC(NC(=O)c7c(Cl)cccc7Cl)C6)CC5)CC4)cc3C2=O)C(=O)N1 (stereo partly shown)
3. O=C1CC[C@H](n2nnc3ccc(N4CCC5(CC4)CC(N4CCN(c6ccc(Nc7ncnc8c7ncn8[C@H]7C[C@@H](NC(=O)c8c(Cl)cccc8Cl)C7)cc6)CC4)C5)cc3c2=O)C(=O)N1
4. O=C1CC[C@H](N2C(=O)c3cccc(OCC(=O)N4CCC(CN5CCC(c6ccc(Nc7ncnc8c7ncn8[C@H]7C[C@@H](NC(=O)Cc8ccccc8)C7)cc6)CC5)CC4)c3C2=O)C(=O)N1
5. O=C1CCC(N2C(=O)c3ccc(N4CCC(C(=O)N5CCC(CN6CCN(c7ccc(Nc8ncnc9c8ncn9[C@H]8C[C@@H](NC(=O)c9cccc(C(F)(F)F)n9)C8)cc7)CC6)CC5)CC4)cc3C2=O)C(=O)N1 (stereo partly shown)
6. Cc1cccc(C(=O)N[C@H]2C[C@@H](n3cnc4c(Nc5ccc(N6CCN(C7CC8(CCN(c9ccc%10nnn([C@H]%11CCC(=O)NC%11=O)c(=O)c%10c9)CC8)C7)CC6)cc5)ncnc43)C2)n1
7. O=C1CC[C@H](N2C(=O)c3cc(F)c(N4CCN(C5CC6(CCN(c7ccc(Nc8ncnc9c8ncn9[C@H]8C[C@@H](NC(=O)Cc9ccccc9)C8)cc7)CC6)C5)CC4)cc3C2=O)C(=O)N1

Outgoing:
["0/0/0%", "10%", "0/0/0%", "0/0/0%", "0/0/0%", "0/0/0%", "100%"]

====

Biological target: CDK9 (Homo sapiens)
Construct: endogenous in cells; host or cells: MDA-MB-231
Experiment: CDK protein degradation activity (Western blotting), CDK9
Assay type: cell-based
Settings: MDA-MB-231 cells, 10 μM, 16 hours, Western blot
So I've got a bunch of molecules here, and I need their Enzyme degradation CDK9 (% remaining) @ 10 μM values.

Take a look at these entries with their results.
{"columns": ["molecule", "result"],
 "data": [
  ["O=C1CCC(N2C(=O)c3ccc(NCC(=O)N4CCC(CN5CCC(CNc6ncnc7c6ncn7[C@H]6C[C@@H](NC(=O)Cc7ccccc7)C6)CC5)CC4)cc3C2=O)C(=O)N1 (stereo partly shown) [Compound 185]", "0/0/0%"],
  ["O=C1CC[C@H](N2C(=O)c3ccc(N4CCC(C(=O)N5CCC(CN6CCN(c7ccc(Nc8ncnc9c8ncn9C8CC(NC(=O)c9cccc(F)n9)C8)cc7)CC6)CC5)CC4)cc3C2=O)C(=O)N1 (stereo partly shown) [Compound 467]", "0/0/0%"],
  ["O=C1CC[C@H](N2C(=O)c3ccc(OCC(=O)N4CCC(CN5CCN(c6ccc(Nc7ncnc8c7ncn8[C@H]7C[C@@H](NC(=O)c8c(Cl)cccc8Cl)C7)cc6)CC5)CC4)cc3C2=O)C(=O)N1 [Compound 162]", "0/0/0%"],
  ["O=C1CC[C@H](N2C(=O)c3ccc(N4CCC(C(=O)N5CCN(CCC6CCN(c7ccc(Nc8ncnc9c8ncn9[C@H]8C[C@@H](NC(=O)Cc9ccccc9)C8)cc7)CC6)CC5)CC4)cc3C2=O)C(=O)N1 [Compound 363]", "0%"],
  ["O=C1CC[C@H](N2C(=O)c3ccc(N4CC(C(=O)N5CCN(CCC6CCN(c7ccc(Nc8ncnc9c8ncn9[C@H]8C[C@@H](NC(=O)Cc9ccccc9)C8)cc7)CC6)CC5)C4)cc3C2=O)C(=O)N1 [Compound 362]", "0%"]
]}

I would be grateful if you could provide Enzyme degradation CDK9 (% remaining) @ 10 μM for each of the following entries.
1. O=C1CC[C@H](N2C(=O)c3cc(F)c(N4CCC(C(=O)N5CCC6(CC5)CC(N5CCN(c7ccc(Nc8ncnc9c8ncn9C8CC(NC(=O)Cc9ccccc9)C8)cc7)CC5)C6)CC4)cc3C2=O)C(=O)N1 (stereo partly shown) [Compound 460]
2. O=C1CCC(n2nnc3ccc(N4CCC(CCN5CCN(c6ccc(Nc7ncnc8c7ncn8[C@H]7C[C@@H](NC(=O)c8c(Cl)cccc8Cl)C7)cc6)CC5)CC4)cc3c2=O)C(=O)N1 (stereo partly shown) [Compound 407]
3. O=C1CC[C@H](N2C(=O)c3cccc(CCCN4CCC(CN5CCN(c6ccc(Nc7ncnc8c7ncn8C7CC(NC(=O)c8cccc(F)n8)C7)cc6)CC5)CC4)c3C2=O)C(=O)N1 (stereo partly shown) [Compound 431]

Outgoing:
["0/0/0%", "0/0/0%", "0/0/0%"]

I need Enzyme degradation CDK9 (% remaining) @ 10 μM for every entry listed below, if you could help.
1. O=C1CC[C@H](N2C(=O)c3ccc(OCC(=O)N4CCC(CN5CCC(c6ccc(Nc7ncnc8c7ncn8C7CC(NC(=O)Cc8ccccc8)C7)cc6)CC5)CC4)cc3C2=O)C(=O)N1 (stereo partly shown) [Compound 289]
2. Cc1cccc(C(=O)N[C@H]2C[C@@H](n3cnc4c(NCc5cccc(OCC6CCN(C(=O)COc7ccc8c(c7)C(=O)N([C@H]7CCC(=O)NC7=O)C8=O)CC6)c5)ncnc43)C2)n1 [Compound 94]
3. Cc1cccc(C(=O)NC2CC(n3cnc4c(NCCC5CCN(CC6CCN(C(=O)C7CCN(c8ccc9c(c8)C(=O)N([C@H]8CCC(=O)NC8=O)C9=O)CC7)CC6)CC5)ncnc43)C2)n1 (stereo partly shown) [Compound 355]
4. O=C1CC[C@H](N2C(=O)c3cc(F)c(N4CCC(CCN5CCN(c6ccc(Nc7ncnc8c7ncn8C7CC(NC(=O)Cc8ccccc8)C7)cc6)CC5)CC4)cc3C2=O)C(=O)N1 (stereo partly shown) [Compound 323]
5. Cc1cccc(C(=O)N[C@H]2C[C@@H](n3cnc4c(NC5CCN(CCCN6CCN(c7ccc8c(c7)C(=O)N([C@H]7CCC(=O)NC7=O)C8=O)CC6)CC5)ncnc43)C2)n1 (racemic) [Compound 41]
6. O=C1CCC(N2C(=O)c3cccc(OCC(=O)N4CCC(CCCN5CCN(c6ccc(Nc7ncnc8c7ncn8[C@H]7C[C@@H](NC(=O)Cc8ccccc8)C7)cc6)CC5)CC4)c3C2=O)C(=O)N1 (stereo partly shown) [Compound 254]
7. O=C1CC[C@H](n2nnc3ccc(N4CCC(CN5CCC(CCNc6ncnc7c6ncn7C6CC(NC(=O)Cc7ccccc7)C6)CC5)CC4)cc3c2=O)C(=O)N1 (stereo partly shown) [Compound 410]

Outgoing:
["0%", "20%", "0%", "0/0/0%", "0/0/0%", "0%", "20%"]

# batch: return Enzyme degradation CDK9 (% remaining) @ 10 μM for each of the 4 molecules below
1. O=C1CC[C@H](N2C(=O)c3ccc(NCC(=O)N4CCC(CC(=O)N5CCN(c6ccc(Nc7ncnc8c7ncn8C7CC(NC(=O)Cc8ccccc8)C7)cc6)CC5)CC4)cc3C2=O)C(=O)N1 (stereo partly shown) [Compound 213]
2. Cc1cccc(C(=O)N[C@H]2C[C@H](n3cnc4c(NCC5CCN(C(=O)CCCCCNC(=O)CNc6ccc7c(c6)C(=O)N([C@@H]6CCC(=O)NC6=O)C7=O)CC5)ncnc43)C2)n1 (stereo in doubt) [Compound 61]
3. Cc1cccc(C(=O)NC2CC(n3cnc4c(Nc5ccc(N6CCN(CC7CCN(C(=O)C8CCN(c9ccc%10c(c9)C(=O)N([C@H]9CCC(=O)NC9=O)C%10=O)CC8)CC7)CC6)cc5)ncnc43)C2)n1 (stereo partly shown) [Compound 379]
4. Cc1cccc(C(=O)NC2CC(n3cnc4c(NCCC5CCN(CC6CCN(CC7CN(c8ccc9c(c8)C(=O)N([C@H]8CCC(=O)NC8=O)C9=O)C7)CC6)CC5)ncnc43)C2)n1 (stereo partly shown) [Compound 402]

Outgoing:
1. 10%
2. 10%
3. 0/0/0%
4. 0/0/0%
